assay_target: MAPK1 (human)
test_protocol: radiometric filter-binding kinase assay
condition: compound 1.0 µM
reported_endpoint: residual activity (%)

>  <compound>
NCC(=O)Nc1ccc(-n2nc(C(F)(F)F)cc2-c2ccc3c(ccc4ccccc43)c2)cc1

>  <assay_target>
MAPK1 (human)

>  <reported_endpoint>
residual activity

>  <assay_result>
101

$$$$

(1) CCNc1nc(Nc2cc(F)c(C(=O)N3CCOCC3)cc2OC)ncc1C(F)(F)F
(2) CNC(=O)C1[C@H]2O[C@@](C)([C@@H]1N)n1c3ccccc3c3c4c(c5c6ccccc6n2c5c31)C(=O)NC4 (stereo partly drawn)
(3) Oc1ccc2ccccc2c1SSc1c(O)ccc2ccccc12
(4) NC(=O)c1cc(-c2ccnc(NC3CCCCC3)c2)nc(N2CCNCC2)c1
Request: Give the ascending ranking of the items by reported residual activity. Answer with the labels in sequence, matching the requested order.
Response: 2, 4, 3, 1

(A) Oc1ccc(/C=C/c2cc(O)cc(O)c2)cc1
(B) COc1cc(O)c2c(c1)/C=C/C[C@H](O)[C@H](O)C(=O)/C=C\C[C@H](C)OC2=O
Request: Which of the two gives a bigger number for residual activity: A or B ? Label of pick, please.
Response: A
(A: 102%, B: 65%)

(A) O=c1c(O)c(-c2ccc(O)c(O)c2)oc2cc(O)c(O)c(O)c12
(B) NC(=O)Nc1ccc2c(c1)/C(=C/c1cc(-c3cccnc3)c[nH]1)C(=O)N2
Request: Hey, between A and B which has a smaller measured residual activity? Label of pick, please.
Response: B

---

assay_target: INSR (human) (UniProt P06213)
Sequence (P06213 whole entry, looked up): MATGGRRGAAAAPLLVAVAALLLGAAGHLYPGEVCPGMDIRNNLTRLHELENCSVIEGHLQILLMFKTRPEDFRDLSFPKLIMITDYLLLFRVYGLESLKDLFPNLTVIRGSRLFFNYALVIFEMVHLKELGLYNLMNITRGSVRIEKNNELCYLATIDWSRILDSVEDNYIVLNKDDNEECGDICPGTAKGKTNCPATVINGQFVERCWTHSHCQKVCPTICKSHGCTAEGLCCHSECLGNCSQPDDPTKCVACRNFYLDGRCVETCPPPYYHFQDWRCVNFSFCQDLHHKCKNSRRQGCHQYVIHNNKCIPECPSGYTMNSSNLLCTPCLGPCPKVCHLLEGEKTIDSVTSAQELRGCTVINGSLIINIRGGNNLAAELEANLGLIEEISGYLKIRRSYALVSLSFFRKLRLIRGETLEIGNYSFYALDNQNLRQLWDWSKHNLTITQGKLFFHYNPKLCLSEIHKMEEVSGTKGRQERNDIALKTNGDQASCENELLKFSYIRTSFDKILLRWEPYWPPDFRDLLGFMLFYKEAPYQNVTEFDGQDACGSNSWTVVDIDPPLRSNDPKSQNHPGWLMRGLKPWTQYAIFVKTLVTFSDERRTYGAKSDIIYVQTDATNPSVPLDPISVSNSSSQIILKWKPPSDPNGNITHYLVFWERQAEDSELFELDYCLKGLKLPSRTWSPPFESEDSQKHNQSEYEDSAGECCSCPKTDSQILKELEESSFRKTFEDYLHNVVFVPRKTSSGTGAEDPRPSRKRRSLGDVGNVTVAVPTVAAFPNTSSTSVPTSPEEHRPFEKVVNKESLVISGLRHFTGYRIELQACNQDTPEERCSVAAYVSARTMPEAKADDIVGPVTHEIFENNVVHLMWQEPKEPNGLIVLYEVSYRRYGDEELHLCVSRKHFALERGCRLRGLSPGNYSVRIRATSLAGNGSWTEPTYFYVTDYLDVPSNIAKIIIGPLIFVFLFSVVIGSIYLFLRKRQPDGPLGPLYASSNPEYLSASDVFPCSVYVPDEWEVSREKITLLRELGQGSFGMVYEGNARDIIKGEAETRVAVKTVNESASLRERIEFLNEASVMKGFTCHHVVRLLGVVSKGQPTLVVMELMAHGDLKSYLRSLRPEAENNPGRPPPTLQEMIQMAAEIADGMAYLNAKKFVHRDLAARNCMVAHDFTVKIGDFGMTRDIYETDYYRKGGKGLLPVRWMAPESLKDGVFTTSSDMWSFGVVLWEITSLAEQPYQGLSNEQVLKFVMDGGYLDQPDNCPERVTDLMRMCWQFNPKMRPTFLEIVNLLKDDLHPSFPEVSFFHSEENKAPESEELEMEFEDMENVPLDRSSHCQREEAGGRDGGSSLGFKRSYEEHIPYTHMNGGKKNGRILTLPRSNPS
test_protocol: radiometric filter-binding kinase assay
condition: compound 10.0 µM
reported_endpoint: residual activity (%)

>  <chemical_structure>
CN1C(=O)[C@@H](Cc2c[nH]c3ccccc23)NC1=S

>  <assay_result>
106

$$$$

(I) COc1cc2ncn(-c3cc(OCc4ccccc4S(C)(=O)=O)c(C#N)s3)c2cc1OC
(II) NC(=O)c1cc2c(-c3cccc(-c4ccccc4)c3)cnc(N)c2s1
Request: Which of the two gives a bigger number for residual activity: I or II ? Label of pick, please.
Response: I
(I: 105%, II: 18%)

---

assay_target: MAPK3 (human)
test_protocol: radiometric filter-binding kinase assay
condition: compound 1.0 µM
reported_endpoint: residual activity (%)

(I) NC(=O)c1cc(-c2ccnc(NC3CCCCC3)c2)nc(N2CCNCC2)c1
(II) Cc1cccc(-c2nn(C(=S)Nc3ccccc3)cc2-c2ccnc3ccccc23)n1
(III) NC(=O)c1cc2c(-c3cccc(-c4ccccc4)c3)cnc(N)c2s1
Request: Task field, ranking: reported residual activity, descending order. Answer with the labels in sequence, matching the requested order.
Response: II, III, I

---

assay_target: RPS6KA1 KD1 KD2 (human) (UniProt Q15418)
Sequence (Q15418 whole entry, looked up): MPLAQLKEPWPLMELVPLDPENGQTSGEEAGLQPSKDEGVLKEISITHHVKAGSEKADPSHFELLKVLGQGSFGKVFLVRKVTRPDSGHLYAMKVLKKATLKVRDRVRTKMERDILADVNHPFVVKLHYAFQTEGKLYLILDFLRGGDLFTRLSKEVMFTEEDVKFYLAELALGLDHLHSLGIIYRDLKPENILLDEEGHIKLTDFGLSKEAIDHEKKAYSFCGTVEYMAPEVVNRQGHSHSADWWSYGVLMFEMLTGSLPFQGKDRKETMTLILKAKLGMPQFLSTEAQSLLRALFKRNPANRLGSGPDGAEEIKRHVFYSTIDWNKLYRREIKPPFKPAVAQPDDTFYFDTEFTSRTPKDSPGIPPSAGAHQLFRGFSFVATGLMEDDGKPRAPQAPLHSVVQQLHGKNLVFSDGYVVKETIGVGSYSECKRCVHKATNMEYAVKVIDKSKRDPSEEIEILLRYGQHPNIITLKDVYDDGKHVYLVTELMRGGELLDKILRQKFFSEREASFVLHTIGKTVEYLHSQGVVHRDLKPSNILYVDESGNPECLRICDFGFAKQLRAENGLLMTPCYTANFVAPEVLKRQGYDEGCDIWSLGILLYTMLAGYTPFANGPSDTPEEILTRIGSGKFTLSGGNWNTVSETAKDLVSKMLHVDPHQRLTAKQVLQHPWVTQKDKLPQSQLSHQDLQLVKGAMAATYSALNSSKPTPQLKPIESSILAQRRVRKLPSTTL
test_protocol: radiometric filter-binding kinase assay
condition: compound 1.0 µM
reported_endpoint: residual activity (%)

>  <compound>
Cc1ccc(=O)n(-c2ccccc2)c1

>  <residual activity, %>
107

$$$$
>  <compound>
O=C(O)c1cc(N=Nc2ccc(S(=O)(=O)Nc3ccccn3)cc2)ccc1O

>  <residual activity, %>
129

$$$$
>  <compound>
COc1ccc2c(c1)c1c3c(c4c5ccccc5n(C)c4c1n2CC(O)CN(C)C)C(=O)NC3=O (configuration not stated)

>  <residual activity, %>
5

$$$$
>  <compound>
O=C1Nc2nc(-c3c(O)cccc3OCC3CC3)cc(C3CCCNC3)c2CO1 (configuration not stated)

>  <residual activity, %>
83

$$$$
>  <compound>
O=C(Nc1cccnc1)c1cc(-c2ccnc(F)c2)ccc1OCc1ccccc1

>  <residual activity, %>
69

$$$$

(P) O=C1NC(=S)N[C@@H]1Cc1c[nH]c2ccccc12
(Q) Cc1ccc(Sc2cnc(Nc3cccc(Br)n3)s2)cc1C(=O)N1CCN(C(=O)CN)CC1
(R) Cn1nc(Nc2ccc(F)cc2)c2c(N)ncnc21
Request: Put the entries in order of residual activity, starting with the largest number. Answer with the labels in sequence, matching the requested order.
Response: R, P, Q
(R: 121%, P: 80%, Q: 29%)

(P) Cc1cc(NC(=O)c2cccc(NC(=O)/C=C/CN(C)C)c2)ccc1Nc1nccc(-c2cccnc2)n1
(Q) CCc1cncnc1N1CCN(Cc2nc3cc(C(F)(F)F)ccc3[nH]2)CC1
Request: Hey, between P and Q which has a smaller measured residual activity? Label of pick, please.
Response: Q

Every entry's value here was drawn from the kinase profiling compilation of Christmann-Franck et al. (2016).
